Recorded values, source paper PMC9911399.

Target: T1, RBFOX1 RRM RbFoxmut (Fox-RRM*) (Homo sapiens, UniProt Q9NWB1 109-208, R118D;E147R;N151S;E152T)
T1 sequence: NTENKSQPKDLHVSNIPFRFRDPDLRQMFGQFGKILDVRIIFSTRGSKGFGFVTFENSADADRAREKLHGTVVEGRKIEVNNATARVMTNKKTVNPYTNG
Test: EMSA; HiTS-Eq, 1 nM pool, 10 min; buffer printed only for the single-RNA assays: 10 mM Tris pH 7.5, 150 mM NaCl, 3.4 mM EDTA, 0.001% NP-40, 30 C
Conditions: tags: His6 N-terminal (pET28a); label: 5' 32P
Over roughly 16,000 sequences, “ka relative to ugcaugu” has its median near 0.096; the highest 2% begin near 0.35. For the sample, the highest values were picked, then their nearest neighbours and some sequences at random.
measured_metric: binding signal

Answered cases to consult:
CGUCGCC (DNA:RNA) RNA: GGGAGACCGGAAUUCAGAUUGUCCCGUCGCCUUAAAUCCCGUCGUAGCCACCA DNA 1: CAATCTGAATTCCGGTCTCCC DNA 2: TGGTGGCTACGACGGGATT | 0.0841 KA relative to UGCAUGU
UCCGCGC (DNA:RNA) RNA: GGGAGACCGGAAUUCAGAUUGUCCUCCGCGCUUAAAUCCCGUCGUAGCCACCA DNA 1: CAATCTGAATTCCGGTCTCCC DNA 2: TGGTGGCTACGACGGGATT | 0.0955 KA relative to UGCAUGU
CCUUCGA (DNA:RNA) RNA: GGGAGACCGGAAUUCAGAUUGUCCCCUUCGAUUAAAUCCCGUCGUAGCCACCA DNA 1: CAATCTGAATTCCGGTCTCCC DNA 2: TGGTGGCTACGACGGGATT | 0.0928 KA relative to UGCAUGU

Query: Indicate its recorded binding signal; the binder in question is CUAUCCC (DNA:RNA) RNA: GGGAGACCGGAAUUCAGAUUGUCCCUAUCCCUUAAAUCCCGUCGUAGCCACCA DNA 1: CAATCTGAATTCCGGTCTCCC DNA 2: TGGTGGCTACGACGGGATT
Response: 0.0664 KA relative to UGCAUGU
